Data origin, for the record: patent US7074789B2

- studySystem: c-Met (Homo sapiens)
- Construct: Kinases are expressed as either kinase domains or full length constructs; made in house
- Sequence (P08581 25-1390): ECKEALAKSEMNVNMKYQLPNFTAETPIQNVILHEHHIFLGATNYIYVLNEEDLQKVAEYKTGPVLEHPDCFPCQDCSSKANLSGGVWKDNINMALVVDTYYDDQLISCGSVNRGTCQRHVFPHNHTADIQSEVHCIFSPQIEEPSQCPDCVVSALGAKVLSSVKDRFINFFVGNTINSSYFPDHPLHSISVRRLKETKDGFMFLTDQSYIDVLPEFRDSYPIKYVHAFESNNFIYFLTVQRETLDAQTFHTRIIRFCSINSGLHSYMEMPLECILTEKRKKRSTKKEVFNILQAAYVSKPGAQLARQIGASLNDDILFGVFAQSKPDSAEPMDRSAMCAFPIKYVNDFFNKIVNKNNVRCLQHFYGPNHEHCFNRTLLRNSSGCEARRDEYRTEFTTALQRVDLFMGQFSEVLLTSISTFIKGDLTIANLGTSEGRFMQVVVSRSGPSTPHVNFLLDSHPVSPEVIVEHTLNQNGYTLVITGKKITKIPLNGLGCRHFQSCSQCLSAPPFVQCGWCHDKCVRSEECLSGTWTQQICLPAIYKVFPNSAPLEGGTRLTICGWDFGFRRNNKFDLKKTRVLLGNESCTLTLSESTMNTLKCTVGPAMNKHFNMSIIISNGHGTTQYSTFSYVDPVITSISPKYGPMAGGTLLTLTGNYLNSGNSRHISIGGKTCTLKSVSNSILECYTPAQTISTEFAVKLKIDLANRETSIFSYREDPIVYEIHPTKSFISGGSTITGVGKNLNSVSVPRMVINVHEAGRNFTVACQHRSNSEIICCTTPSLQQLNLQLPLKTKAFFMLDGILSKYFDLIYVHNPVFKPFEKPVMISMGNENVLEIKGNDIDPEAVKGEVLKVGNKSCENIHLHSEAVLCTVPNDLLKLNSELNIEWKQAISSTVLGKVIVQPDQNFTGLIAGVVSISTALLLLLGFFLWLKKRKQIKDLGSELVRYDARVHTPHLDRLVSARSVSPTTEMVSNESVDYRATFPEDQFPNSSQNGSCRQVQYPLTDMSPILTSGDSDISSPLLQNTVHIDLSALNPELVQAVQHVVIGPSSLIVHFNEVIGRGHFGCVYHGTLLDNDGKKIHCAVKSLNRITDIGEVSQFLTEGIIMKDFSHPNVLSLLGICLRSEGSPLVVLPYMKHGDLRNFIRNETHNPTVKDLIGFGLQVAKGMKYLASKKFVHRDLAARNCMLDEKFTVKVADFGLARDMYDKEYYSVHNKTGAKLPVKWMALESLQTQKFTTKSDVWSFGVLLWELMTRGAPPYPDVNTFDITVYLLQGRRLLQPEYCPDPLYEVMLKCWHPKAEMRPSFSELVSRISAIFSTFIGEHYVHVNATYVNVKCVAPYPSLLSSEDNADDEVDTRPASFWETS
- measurementProtocol: Kinase inhibition assay (33P transfer), c-Met
- Assay type: biochemical
- assaySetup: Table 2, kinase inhibition class; read-out: Met-1
Collected IC50 values appear next to each entry.

- molecule: "COc1cc(Nc2ncnc(Nc3ccc4c(cnn4Cc4ccccc4)c3)n2)cc(OC)c1OC"
  IC50: "0.827 to 4.96 µM"
- molecule: "COc1cc(Nc2ncnc(-n3cc(CC(N)=O)c4ccccc43)n2)cc(OC)c1OC"
  IC50: "> 10.4 µM"
- molecule: "c1ccc(Cn2ncc3cc(Nc4ncnc(NCc5ccco5)n4)ccc32)cc1"
  IC50: "1.01 to 6.04 µM"
- molecule: "COc1cc(Nc2ncnc(N3c4ccccc4CC3C)n2)cc(OC)c1OC (centres unmarked)"
  IC50: "1.02 to 6.1 µM"
- molecule: "CCOC(=O)Cc1ccc(Nc2ncnc(Nc3cc(OC)c(OC)c(OC)c3)n2)cc1"
  IC50: "7.96 to 10.2 µM"
- molecule: "COc1cc(Nc2ncnc(-n3c(NCc4ccccc4Cl)nc4ccccc43)n2)cc(OC)c1OC"
  IC50: "> 8.69 µM"
- molecule: "COc1cccc(Nc2ncnc(N(C)c3cccc(Cl)c3)n2)c1"
  IC50: "> 13.2 µM"
- molecule: "C=CCNC(=O)c1ccc(-c2cc(Nc3ncnc(Nc4cc(OC)c(OC)c(OC)c4)n3)[nH]n2)cc1"
  IC50: "4.78 to 6.96 µM"
